All values here come from patent EP4610269A1.

Target: human uPAR (uPAR-Fc) (Homo sapiens, UniProt Q03405)
Construct: comprising amino acids Leu23-Arg303 according to UniProt entry Q03405.1; purchased R&D Systems 10378-UK-100
Sequence (Q03405 23-303): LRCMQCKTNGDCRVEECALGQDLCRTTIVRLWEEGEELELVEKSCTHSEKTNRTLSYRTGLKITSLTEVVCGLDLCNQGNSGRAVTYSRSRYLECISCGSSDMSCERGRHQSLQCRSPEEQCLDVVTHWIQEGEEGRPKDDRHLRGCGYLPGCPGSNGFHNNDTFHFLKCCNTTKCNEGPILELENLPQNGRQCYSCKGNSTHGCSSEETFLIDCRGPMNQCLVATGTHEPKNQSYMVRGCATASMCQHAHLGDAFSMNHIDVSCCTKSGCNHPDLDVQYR
Assay: Surface plasmon resonance (SPR) assay, single cycle kinetics
Format: binding
Conditions: pKD category for uPAR SPR activity assay; uPAR-Fc on Protein A-Chip, 25°C; read-out: pKD CAT (converted)
Where a SMILES comes first, the peptide text is derived from it. Bridges are numbered along the chain shown (N, C = ends). [ ]: non-standard residue; d: D form. The star is where a group is joined. DOTA = O=C(O)CN1CCN(CC(=O)O)CCN(CC(=O)*)CCN(CC(=O)O)CC1; Hyp = O=C(O)[C@@H]1C[C@@H](O)CN1; Tic = O=C(O)[C@@H]1Cc2ccccc2CN1; Cit = NC(=O)NCCC[C@H](N)C(=O)O; Nva = CCC[C@H](N)C(=O)O; Pentanoyl = CCCCC(=O)*
observable: Kd

Kindly note the recorded Kd for CCCCC(=O)N[C@H]1CSSC[C@@H](C(N)=O)NC(=O)[C@H](CCC)NC(=O)[C@H]([C@@H](C)CC)NC(=O)[C@@H]2C[C@@H](O)CN2C(=O)[C@@H]2CCCN2C(=O)[C@@H]2Cc3ccccc3CN2C(=O)[C@H](Cc2ccc(O)cc2)NC(=O)[C@H](CCCCNC(=O)CN2CCN(CC(=O)O)CCN(CC(=O)O)CCN(CC(=O)O)CC2)NC(=O)[C@H](CCCNC(N)=O)NC1=O [UPAR-252] (Pentanoyl-C[Cit]K(DOTA)Y[Tic]P[Hyp]I[Nva]C-NH2; disulfide 1-10) , which is > 100 nM
